- System: LN229 human brain glioblastoma cells MGMT+ MMR+
- Assay procedure: Anticancer activity towards LN229 cells (Example 15)
- Format: cell-based
- Condition set: Homo sapiens, LN-229; 120 hours; read-out: MGMT+ MMR+ Activity
Measure: IC50

Parameter requested: IC50. Apply to each item below.
1. Cc1ncc(CNC(=O)N(CCF)N=O)c(N)n1
2. O=NN(CCF)C(=O)NC1CCCCC1

Result block:
> 90 µM
> 90 µM

* * *

- System: LN229 human brain glioblastoma cells MGMT+ MMR+
- Assay procedure: Anticancer activity towards LN229 cells (Example 15)
- Type: cell-based
- Condition set: 120 hours; read-out: MGMT+ MMR+ Activity
Measure: IC50

Query block: Value wanted: IC50 (LN229 human brain glioblastoma cells MGMT+ MMR+) of entry CCOP(=O)(OCC)C(C)NC(=O)N(CCF)N=O (stereo not shown)
Result block: > 90 µM
